- testDescription: in vivo
- settings: Indian origin, rhesus monkey, plasma, po, 50 mg/kg
measuredParameter: Cmax (ng/mL)
Numbers only, in ng/mL.

Data point: CC(C)c1nc(CN(C)C(=O)N[C@H](C(=O)N[C@@H](Cc2ccccc2)C[C@H](O)[C@H](Cc2ccccc2)NC(=O)OCc2cncs2)C(C)C)cs1 [Ritonavir] ; Cmax = 3600

###

- testDescription: in vivo
- settings: Indian origin, rhesus monkey, in vivo, po, 50 mg/kg
measuredParameter: Cmax (ng/mL)
One number for each entry, in ng/mL.

Data point: "Cc1cccc(C)c1OCC(=O)N[C@@H](Cc1ccccc1)[C@@H](O)C[C@H](Cc1ccccc1)NC(=O)[C@H](C(C)C)N1CCCNC1=O" ; Cmax = 10300

###

- testDescription: in vivo
- settings: Indian origin, rhesus monkey, in vivo, po
For each of the compounds below, state its AUC(0-t).
One number for each entry, in ng·h/mL.

compound	AUC(0-t), ng·h/mL
COc1cc(Cc2cnc(N)nc2N)cc(OC)c1OC [Trimethoprim]	1730

We now examine a further compound.
Data point: Cc1cccc(C)c1OCC(=O)N[C@@H](Cc1ccccc1)[C@@H](O)C[C@H](Cc1ccccc1)NC(=O)[C@H](C(C)C)N1CCCNC1=O [Lopinavir] ; AUC(0-t) = 171000
